System: Mycobacterium leprae
Experiment: Inhibition of Mycobacterium leprae recombinant DNA gyrase expressed in Escherichia coli assessed as inhibition of pBR322 DNA supercoiling
measure: IC50 (µg/mL)
Enter your answer as a number in µg/mL; do not include the unit.

Task: Request the reported IC50 associated with CCn1cc(C(=O)O)c(=O)c2cc(F)c(N3CCN(C)CC3)cc21
Output: 23

Task: Request the reported IC50 associated with CC1COc2c(N3CCN(C)CC3)c(F)cc3c(=O)c(C(=O)O)cn1c23 (stereo not drawn)
Output: 10

Task: Request the reported IC50 associated with CC1CN(c2cc3c(cc2F)c(=O)c(C(=O)O)cn3-c2ccc(F)cc2F)CCN1 (stereo not drawn)
Output: 26

Task: Request the reported IC50 associated with C[C@H]1NCc2cc(-c3ccc4c(=O)c(C(=O)O)cn(C5CC5)c4c3OC(F)F)ccc21
Output: 3.5

Task: Request the reported IC50 associated with CCn1cc(C(=O)O)c(=O)c2cc3c(cc21)OCO3
Output: 170

Task: Request the reported IC50 associated with COc1c(N2CCNC(C)C2)c(F)cc2c(=O)c(C(=O)O)cn(C3CC3)c12 (stereo not drawn)
Output: 2

Task: Request the reported IC50 associated with CCn1cc(C(=O)O)c(=O)c2ccc(C)nc21
Output: 300

Task: Request the reported IC50 associated with N[C@@H]1CN(c2c(F)cc3c(=O)c(C(=O)O)cn([C@@H]4C[C@@H]4F)c3c2Cl)CC12CC2 [SITAFLOXACIN ANHYDROUS]
Output: 1

* * *

System: Mycobacterium leprae
Assay: Effect on Mycobacterium leprae recombinant DNA gyrase expressed in Escherichia coli assessed as enhancement of supercoiled pBR322 DNA cleavage
Measured CC25 of individual entries
Enter your answer as a number in µg/mL; do not include the unit.

Task: Request the reported CC25 associated with CC1CN(c2cc3c(cc2F)c(=O)c(C(=O)O)cn3-c2ccc(F)cc2F)CCN1 (stereo not drawn) [TEMAFLOXACIN]
Output: 11

Task: Request the reported CC25 associated with N[C@@H]1CN(c2c(F)cc3c(=O)c(C(=O)O)cn([C@@H]4C[C@@H]4F)c3c2Cl)CC12CC2 [SITAFLOXACIN ANHYDROUS]
Output: 0.5

Task: Request the reported CC25 associated with C[C@H]1NCc2cc(-c3ccc4c(=O)c(C(=O)O)cn(C5CC5)c4c3OC(F)F)ccc21 [GARENOXACIN]
Output: 3
